test system: Malme-3M; test: NCI tumour cell line growth inhibition, 48 h
Active and inactive are the calls of the source. No stated cut-off is given here; in the data, active = GI50 up to about 1.1 µM and inactive = higher.
Outcome field: choose from 1.0 = active, 0.0 = inactive

So what was the verdict on OCCNCCN1CCN(CCCN2c3ccccc3Sc3ccc(C(F)(F)F)cc32)CC1 in this test?
0.0

So what was the verdict on CCCCCCCCOCC1S(=O)(=O)OCCOS1(=O)=O in this test?
0.0

So what was the verdict on CN(C)CC1CCC/C(=C\c2ccc(OC(=O)c3ccc(Cl)cc3)cc2)C1=O (stereo not given) in this test?
0.0

So what was the verdict on CCN1CC2=C(OC(N)=C(C#N)C2c2ccc(Cl)cc2)/C(=C/c2ccc(Cl)cc2)C1 (stereo not given) in this test?
0.0

So what was the verdict on CC(C)CC(NC(=O)OC(C)(C)C)C(=O)Nc1ccc(Nc2nc(F)nc(-c3c4ccccc4cn3C)n2)cc1 (stereo not given) in this test?
0.0

So what was the verdict on COC(=O)CC1(O)C(/C=C/c2ccccc2)C(C(=O)OC)C(=O)C(C(=O)OC)C1C(=O)OC (stereo not given) in this test?
0.0

So what was the verdict on CS/C(=N\C#N)S/C=C/C(=O)c1ccc(Cl)cc1 in this test?
0.0

So what was the verdict on CCOP(=O)(OCC)/C(C#N)=C\c1cccc2ccccc12 in this test?
0.0

So what was the verdict on Cc1cc2nnn(C3CCCO3)c2cc1C (stereo not given) in this test?
0.0

So what was the verdict on C/C(=N\NC(=S)Nc1ccccc1)c1nc2cccnc2[nH]1 in this test?
0.0

So what was the verdict on Cc1cccc(-c2nc3ccc([N+](=O)[O-])cc3c(=O)o2)c1 in this test?
0.0

So what was the verdict on O=C(NCCCNCCCCNCCCNC(=O)C(F)(F)F)C(F)(F)F in this test?
0.0

So what was the verdict on Cc1oc2c(Cl)cc(O)c(Cl)c2c2cccc1-2 in this test?
0.0

So what was the verdict on CN(C(=O)C12C3C4C1C1C2C3C41C(N)=O)C(C)(C)C (stereo not given) in this test?
0.0

So what was the verdict on CC(C)(C)OC(=O)N1CCC2(CC1)C(=O)NCN2c1ccccc1 in this test?
0.0

So what was the verdict on COC(=O)C1=NC(=S)NC(c2ccccc2)C1c1nc2ccccc2o1 (stereo not given) in this test?
0.0

So what was the verdict on CCCOc1ccc(/C=C/c2cc(OC)c(OC)c(OC)c2)cc1 in this test?
1.0

So what was the verdict on CS(=O)(=O)Nc1ccc2ccccc2c1-c1c(NS(C)(=O)=O)ccc2ccccc12 in this test?
0.0

So what was the verdict on O=C(CCCN1CCC2(CC1)CC(=O)N(N1CCCCCC1)C2=O)c1ccc(F)cc1 in this test?
0.0

So what was the verdict on CO/C(=N\N=Cc1ccccc1)c1ccncc1 in this test?
0.0
